Tested on: CAL-62;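 also: growth inhibition of CAL-62 cells, read out with a cell viability assay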
Experiment: cells
Format: functional, cell-based, Homo sapiens
Conditions: Homo sapiens, CAL-62
Description: SANGER: Inhibition of human CAL-62 cell growth in a cell viability assay.
// IC50 lookup, one value per entry
observation.type: IC50 (nM)

compound | unit.annotation | relation.symbol | quantitative.result
C=CCNC1=C2C[C@@H](C)C[C@H](OC)[C@H](O)[C@@H](C)/C=C(\C)[C@H](OC(N)=O)[C@@H](OC)/C=C\C=C(/C)C(=O)NC(=CC1=O)C2=O [TANESPIMYCIN] | nM | = | 162
COc1cc(F)c(F)c(Nc2ccc(I)cc2F)c1NS(=O)(=O)C1(CC(O)CO)CC1 (configuration not stated) | nM | = | 682
O=c1cc(-c2cccc3c2Sc2ccccc2S3)oc(N2CCOCC2)c1 [KU-55933] | nM | > | 10000
C=CCc1cccc(/C=N/NC(=O)CN2CCN(Cc3ccccc3)CC2)c1O [PAC-1] | nM | > | 2560
O=C1N=C(NCc2cccs2)S/C1=C\c1ccc2ncccc2c1 | nM | > | 5000
CC(=O)O[C@@H]1[C@@H](OC(C)=O)[C@@H](O)[C@H](Oc2c(-c3ccc(O)cc3)oc3cc(O)cc(O)c3c2=O)O[C@H]1C | nM | > | 10000
COc1cc([C@@H]2c3cc4c(cc3[C@@H](O[C@@H]3O[C@@H]5CO[C@@H](C)O[C@H]5[C@H](O)[C@H]3O)[C@H]3COC(=O)[C@H]23)OCO4)cc(OC)c1O [ETOPOSIDE] | nM | = | 851

###

// IC50 lookup, one value per entry
Tested on: NOS-1
Assay: cells
Type: functional, cell-based, Homo sapiens
Details: Homo sapiens, NOS-1
Description: SANGER: Inhibition of human NOS-1 cell growth in a cell viability assay.

item.smiles | relation.symbol | IC50 [nM]
CCc1nc(N)nc(N)c1-c1ccc(Cl)cc1 | = | 6660
CC(=O)O[C@@]12CO[C@@H]1C[C@H](O)[C@@]1(C)C(=O)[C@H](O)C3=C(C)[C@@H](OC(=O)[C@H](O)[C@@H](NC(=O)OC(C)(C)C)c4ccccc4)C[C@@](O)([C@@H](OC(=O)c4ccccc4)[C@H]21)C3(C)C | > | 10
Cc1cc([C@@H](C)Nc2ccccc2C(=O)O)c2nc(N3CCOCC3)cc(=O)n2c1 | > | 5120
CN1CCN(CCOc2cc(OC3CCOCC3)c3c(Nc4c(Cl)ccc5c4OCO5)ncnc3c2)CC1 | = | 605
C=CCNC1=C2C[C@@H](C)C[C@H](OC)[C@H](O)[C@@H](C)/C=C(\C)[C@H](OC(N)=O)[C@@H](OC)/C=C\C=C(/C)C(=O)NC(=CC1=O)C2=O | = | 975
CS(=O)(=O)CCNCc1ccc(-c2ccc3ncnc(Nc4ccc(OCc5cccc(F)c5)c(Cl)c4)c3c2)o1 | > | 2000
CC1=C2C[C@H]3[C@@H](CC=C4C[C@@H](O)CC[C@@]43C)[C@@H]2CC[C@]12O[C@@H]1C[C@H](C)CN[C@H]1[C@H]2C | > | 16000
Cn1cncc1[C@@](N)(c1ccc(Cl)cc1)c1ccc2c(c1)c(-c1cccc(Cl)c1)cc(=O)n2C | = | 2130
C=CCc1cccc(/C=N/NC(=O)CN2CCN(Cc3ccccc3)CC2)c1O | > | 2560

###

System: NCI-H226;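 also: cell viability read-out used to gauge growth inhibition of the cells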
Assay: cells
Type: functional, cell-based, Homo sapiens
Settings: Homo sapiens, NCI-H226
Description: SANGER: Inhibition of human NCI-H226 cell growth in a cell viability assay.
observation.type: IC50

item.smiles | system.name | result
COC(=O)CNC(=O)C(=O)OC | NCI-H226 | > 4000 µM
COc1ccc(-c2ccc3c(N4CCOC[C@@H]4C)nc(N4CCOC[C@@H]4C)nc3n2)cc1CO | NCI-H226 | > 2 µM
CN(C)C/C=C/C(=O)Nc1cc2c(Nc3ccc(F)c(Cl)c3)ncnc2cc1O[C@H]1CCOC1 | NCI-H226 | > 0.5 µM
Cn1cc(C2=C(c3ccc(Cl)cc3Cl)C(=O)NC2=O)c2ccccc21 | NCI-H226 | > 10 µM
CCC(=O)N1CCN(c2ccc(-n3c(=O)ccc4cnc5ccc(-c6cnc7ccccc7c6)cc5c43)cc2C(F)(F)F)CC1 | NCI-H226 | > 1.2 µM
Cc1cnc(-c2cnc(NCCNc3ccc(C#N)cn3)nc2-c2ccc(Cl)cc2Cl)[nH]1 | NCI-H226 | > 2.56 µM
CN(c1ncccc1CNc1nc(Nc2ccc3c(c2)CC(=O)N3)ncc1C(F)(F)F)S(C)(=O)=O | NCI-H226 | > 2.56 µM
CNC(=O)c1cc(Oc2ccc(NC(=O)Nc3ccc(Cl)c(C(F)(F)F)c3)cc2)ccn1 | NCI-H226 | > 4 µM
